Hey, just so you know, these numbers are from ChEMBL document CHEMBL1201862.

- experimental.system: Estrogen receptor (Homo sapiens);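 also: potency for inhibiting coactivator peptide recruitment to the receptor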
- Sequence (P03372 whole entry): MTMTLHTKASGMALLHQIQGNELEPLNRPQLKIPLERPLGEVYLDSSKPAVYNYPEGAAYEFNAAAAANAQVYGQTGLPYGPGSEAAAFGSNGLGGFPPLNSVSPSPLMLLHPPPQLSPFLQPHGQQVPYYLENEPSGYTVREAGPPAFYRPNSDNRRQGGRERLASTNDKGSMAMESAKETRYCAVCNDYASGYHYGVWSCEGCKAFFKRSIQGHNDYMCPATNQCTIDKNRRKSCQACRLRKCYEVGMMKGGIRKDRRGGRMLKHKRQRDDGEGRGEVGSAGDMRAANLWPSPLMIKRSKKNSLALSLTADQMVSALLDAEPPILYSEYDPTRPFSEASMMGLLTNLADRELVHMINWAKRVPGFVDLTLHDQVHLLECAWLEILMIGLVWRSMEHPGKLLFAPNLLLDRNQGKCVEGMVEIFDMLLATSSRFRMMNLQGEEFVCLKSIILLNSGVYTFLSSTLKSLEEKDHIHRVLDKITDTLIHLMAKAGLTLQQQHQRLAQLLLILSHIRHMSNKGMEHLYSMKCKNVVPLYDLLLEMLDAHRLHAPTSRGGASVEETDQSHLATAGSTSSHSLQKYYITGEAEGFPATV
Active and inactive are the calls of the source.
assay.metric: IC50

compound | IC50
Cc1c(/C=N/n2cnnc2)c2ccccc2n1CCOc1ccc(Cl)cc1 | > 50 µM (not active)

Name the recorded IC50 of O=C(CSc1nc2c(c(=O)n1-c1ccc(Br)cc1)SCC2)Nc1nccs1 , assay system Estrogen receptor (Homo sapiens).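 Also: potency for inhibiting coactivator peptide recruitment to the receptor.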
> 50 µM (not active)

Name the recorded IC50 of O=C1Nc2ccccc2SC(c2ccccc2)C1O (stereo not given) , assay system Estrogen receptor (Homo sapiens).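 Also: potency for inhibiting coactivator peptide recruitment to the receptor.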
3.02 µM (active)

Name the recorded IC50 of COc1cc(OC)nc(NC(=O)C(C)C)n1 , assay system Estrogen receptor (Homo sapiens).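 Also: potency for inhibiting coactivator peptide recruitment to the receptor.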
> 50 µM (not active)

Name the recorded IC50 of CCCc1nnc2n1N=C(c1ccc(-c3cc(Cl)ccc3Cl)o1)CS2 , assay system Estrogen receptor (Homo sapiens).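 Also: potency for inhibiting coactivator peptide recruitment to the receptor.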
13.4 µM (active)

====

Collected IC50 values appear next to each entry.
- experimental.system: DNA dC->dU-editing enzyme APOBEC-3G (Homo sapiens, UniProt Q9HC16)
- Sequence (Q9HC16 whole entry): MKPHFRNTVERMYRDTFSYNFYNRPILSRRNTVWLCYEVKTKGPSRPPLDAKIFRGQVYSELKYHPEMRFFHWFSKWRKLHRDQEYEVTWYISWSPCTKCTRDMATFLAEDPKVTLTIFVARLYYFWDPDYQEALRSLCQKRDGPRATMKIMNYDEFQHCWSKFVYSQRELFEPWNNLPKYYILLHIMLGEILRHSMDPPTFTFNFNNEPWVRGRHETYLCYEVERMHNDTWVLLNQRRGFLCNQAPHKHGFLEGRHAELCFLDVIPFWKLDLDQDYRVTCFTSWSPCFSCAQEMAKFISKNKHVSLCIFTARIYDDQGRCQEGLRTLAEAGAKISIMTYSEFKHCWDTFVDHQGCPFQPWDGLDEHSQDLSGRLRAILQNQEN
- run.description: Dose Response confirmation of small molecule APOBEC3G DNA Deaminase Inhibitors via a fluorescence-based single-stranded DNA deaminase assay. [Related pubchem assays (depositor defined):AID493012, AID493028]
- Type: functional
Calls of active or inactive are those of the source.

The examples below pair each entry with its known result.
compound.structure | experimental.value
COc1cc(-c2n[nH]c(=S)n2-c2ccc(C)cc2)cc(OC)c1OC | 3.38 µM (active)
Sc1nc2ccccc2n1Cc1ccccc1 | 37.2 µM (active)
Sc1nnc(-c2ccncc2)n1/N=C/c1ccccc1Cl | 3.46 µM (active)
O=c1[nH]c(SCc2n[nH]c(=S)n2-c2ccccc2)nc2ccccc12 | 3.8 µM (active)

Tell us which IC50 value is on record for O=C(CCCSc1ccc(Cl)cc1)Nc1cc(S(=O)(=O)N2CCOCC2)ccc1O
33.2 µM (active)

Tell us which IC50 value is on record for COc1ccc(/C=N/n2c(S)nnc2-c2[nH]nc3c2CCC3)cc1
3.61 µM (active)

====

- experimental.system: Peroxisome proliferator-activated receptor gamma/Nuclear receptor coactivator 1 (Homo sapiens);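 also: agonist potency as compounds enhance coactivator SRC-1 recruitment to PPARgamma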
- Format: functional
assay.metric: EC50

The examples below pair each entry with its known result.
compound.structure | assay.metric | experimental.value
CC(C)n1c(SCC(=O)NCc2ccco2)nc2c1c(=O)n(C)c(=O)n2C | EC50 | > 79.4 µM (not active)
CCOc1ccc(/C=N/n2cc(-c3ccccc3)nc2S)cc1 | EC50 | > 79.4 µM (not active)
Cc1ccc(-c2csc(NC(=O)c3cc([N+](=O)[O-])ccc3N3CCOCC3)n2)cc1 | EC50 | > 79.4 µM (not active)

Tell us which EC50 value is on record for Cn1c(=O)c(Oc2cc(Cl)cc(Cl)c2)nc2ccccc21
24.5 µM (not active)

====

- experimental.system: Cytochrome P450 1A2 (Homo sapiens);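 also: PubChem cytochrome P450 panel assay, CYP1A2 panel member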
- Sequence (P05177 whole entry): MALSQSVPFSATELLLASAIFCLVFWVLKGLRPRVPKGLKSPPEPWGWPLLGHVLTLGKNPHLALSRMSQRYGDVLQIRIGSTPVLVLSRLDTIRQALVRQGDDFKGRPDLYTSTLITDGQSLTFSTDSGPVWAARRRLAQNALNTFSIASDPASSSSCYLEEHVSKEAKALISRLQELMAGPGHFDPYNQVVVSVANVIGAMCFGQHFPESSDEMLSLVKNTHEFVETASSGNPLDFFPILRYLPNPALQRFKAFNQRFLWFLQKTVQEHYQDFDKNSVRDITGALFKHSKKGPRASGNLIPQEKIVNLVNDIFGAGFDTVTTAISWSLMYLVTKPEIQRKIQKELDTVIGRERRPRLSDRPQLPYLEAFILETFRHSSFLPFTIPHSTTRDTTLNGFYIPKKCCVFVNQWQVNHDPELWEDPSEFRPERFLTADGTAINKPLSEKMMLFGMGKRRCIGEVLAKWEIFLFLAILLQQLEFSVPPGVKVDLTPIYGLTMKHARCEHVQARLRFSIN
Active and inactive are the calls of the source.
Collected AC50 values appear next to each entry.

molecule | AC50
CCCSc1ccc2nc(NC(=O)OC)[nH]c2c1 | 0.398 µM (active)
CSc1nsc(/C=C/Nc2ccc(Cl)cc2)c1C#N | 5.62 µM (inconclusive)
CCC/C=C(\CCC)C(NP(=O)(c1ccccc1)c1ccccc1)c1ccccc1 (stereo not drawn) | 15.8 µM (inconclusive)
CCCN(CCC)CCCNC(=O)c1cc2cc3ccc(OC)cc3nc2o1 | 20 µM (inconclusive)
COc1cccc(Cn2c(=O)c(CCc3ccccc3)nc3cncnc32)c1 | 12.6 µM (inconclusive)

Tell us which AC50 value is on record for N[C@H](C(=O)O)C1[C@H](C(=O)O)[C@H]1C(=O)O (stereo partly drawn)
31.6 µM (inconclusive)

Tell us which AC50 value is on record for O=c1c(-c2ccc(Cl)cc2)nc2cnc(N3CCNCC3)nc2n1Cc1ccc(F)cc1
15.8 µM (inconclusive)

Tell us which AC50 value is on record for CCCc1n[nH]c2c1C(c1ccncc1)C(C#N)=C(N)O2 (stereo not drawn)
25.1 µM (inconclusive)

====

Collected AC50 values appear next to each entry.
- run.description: control 3'UTR Renilla luciferase suppression, dose response, counter-screen for Shn3 inhibitor project, cell-based, Clone20-Shn3RL, cherry-picked (AID 624133)
- Type: functional
Activity calls are given as the source filed them.

compound.structure | assay.metric | experimental.value
CCOc1cccc(CNCCc2c(C)[nH]c3ccc(OC(F)(F)F)cc23)c1O | AC50 | 18.1 µM (active)
O=[N+]([O-])c1ccc(S(=O)(=O)c2ccccc2)nc1 | AC50 | 3.96 µM (active)

Tell us which AC50 value is on record for CC(C)C[C@H](N)c1nnc(S(=O)(=O)Cc2ccc(F)cc2)o1
22.1 µM (active)

Tell us which AC50 value is on record for CSc1nnc(NC(=O)c2nc(S(=O)(=O)Cc3ccccc3)ncc2Cl)s1
14.5 µM (active)

Tell us which AC50 value is on record for C=C(C)[C@@H]1C2=CC(C(=O)OC)=C(C[C@H](C(=C)C)[C@H]3O[C@H]3C3=C[C@H]1OC3=O)O2
5.23 µM (active)

====

- experimental.system: Voltage-gated N-type calcium channel alpha-1B subunit/Amyloid beta A4 precursor protein-binding family A member 1 (Homo sapiens, UniProt Q00975+Q02410)
- Sequence (Q00975 whole entry): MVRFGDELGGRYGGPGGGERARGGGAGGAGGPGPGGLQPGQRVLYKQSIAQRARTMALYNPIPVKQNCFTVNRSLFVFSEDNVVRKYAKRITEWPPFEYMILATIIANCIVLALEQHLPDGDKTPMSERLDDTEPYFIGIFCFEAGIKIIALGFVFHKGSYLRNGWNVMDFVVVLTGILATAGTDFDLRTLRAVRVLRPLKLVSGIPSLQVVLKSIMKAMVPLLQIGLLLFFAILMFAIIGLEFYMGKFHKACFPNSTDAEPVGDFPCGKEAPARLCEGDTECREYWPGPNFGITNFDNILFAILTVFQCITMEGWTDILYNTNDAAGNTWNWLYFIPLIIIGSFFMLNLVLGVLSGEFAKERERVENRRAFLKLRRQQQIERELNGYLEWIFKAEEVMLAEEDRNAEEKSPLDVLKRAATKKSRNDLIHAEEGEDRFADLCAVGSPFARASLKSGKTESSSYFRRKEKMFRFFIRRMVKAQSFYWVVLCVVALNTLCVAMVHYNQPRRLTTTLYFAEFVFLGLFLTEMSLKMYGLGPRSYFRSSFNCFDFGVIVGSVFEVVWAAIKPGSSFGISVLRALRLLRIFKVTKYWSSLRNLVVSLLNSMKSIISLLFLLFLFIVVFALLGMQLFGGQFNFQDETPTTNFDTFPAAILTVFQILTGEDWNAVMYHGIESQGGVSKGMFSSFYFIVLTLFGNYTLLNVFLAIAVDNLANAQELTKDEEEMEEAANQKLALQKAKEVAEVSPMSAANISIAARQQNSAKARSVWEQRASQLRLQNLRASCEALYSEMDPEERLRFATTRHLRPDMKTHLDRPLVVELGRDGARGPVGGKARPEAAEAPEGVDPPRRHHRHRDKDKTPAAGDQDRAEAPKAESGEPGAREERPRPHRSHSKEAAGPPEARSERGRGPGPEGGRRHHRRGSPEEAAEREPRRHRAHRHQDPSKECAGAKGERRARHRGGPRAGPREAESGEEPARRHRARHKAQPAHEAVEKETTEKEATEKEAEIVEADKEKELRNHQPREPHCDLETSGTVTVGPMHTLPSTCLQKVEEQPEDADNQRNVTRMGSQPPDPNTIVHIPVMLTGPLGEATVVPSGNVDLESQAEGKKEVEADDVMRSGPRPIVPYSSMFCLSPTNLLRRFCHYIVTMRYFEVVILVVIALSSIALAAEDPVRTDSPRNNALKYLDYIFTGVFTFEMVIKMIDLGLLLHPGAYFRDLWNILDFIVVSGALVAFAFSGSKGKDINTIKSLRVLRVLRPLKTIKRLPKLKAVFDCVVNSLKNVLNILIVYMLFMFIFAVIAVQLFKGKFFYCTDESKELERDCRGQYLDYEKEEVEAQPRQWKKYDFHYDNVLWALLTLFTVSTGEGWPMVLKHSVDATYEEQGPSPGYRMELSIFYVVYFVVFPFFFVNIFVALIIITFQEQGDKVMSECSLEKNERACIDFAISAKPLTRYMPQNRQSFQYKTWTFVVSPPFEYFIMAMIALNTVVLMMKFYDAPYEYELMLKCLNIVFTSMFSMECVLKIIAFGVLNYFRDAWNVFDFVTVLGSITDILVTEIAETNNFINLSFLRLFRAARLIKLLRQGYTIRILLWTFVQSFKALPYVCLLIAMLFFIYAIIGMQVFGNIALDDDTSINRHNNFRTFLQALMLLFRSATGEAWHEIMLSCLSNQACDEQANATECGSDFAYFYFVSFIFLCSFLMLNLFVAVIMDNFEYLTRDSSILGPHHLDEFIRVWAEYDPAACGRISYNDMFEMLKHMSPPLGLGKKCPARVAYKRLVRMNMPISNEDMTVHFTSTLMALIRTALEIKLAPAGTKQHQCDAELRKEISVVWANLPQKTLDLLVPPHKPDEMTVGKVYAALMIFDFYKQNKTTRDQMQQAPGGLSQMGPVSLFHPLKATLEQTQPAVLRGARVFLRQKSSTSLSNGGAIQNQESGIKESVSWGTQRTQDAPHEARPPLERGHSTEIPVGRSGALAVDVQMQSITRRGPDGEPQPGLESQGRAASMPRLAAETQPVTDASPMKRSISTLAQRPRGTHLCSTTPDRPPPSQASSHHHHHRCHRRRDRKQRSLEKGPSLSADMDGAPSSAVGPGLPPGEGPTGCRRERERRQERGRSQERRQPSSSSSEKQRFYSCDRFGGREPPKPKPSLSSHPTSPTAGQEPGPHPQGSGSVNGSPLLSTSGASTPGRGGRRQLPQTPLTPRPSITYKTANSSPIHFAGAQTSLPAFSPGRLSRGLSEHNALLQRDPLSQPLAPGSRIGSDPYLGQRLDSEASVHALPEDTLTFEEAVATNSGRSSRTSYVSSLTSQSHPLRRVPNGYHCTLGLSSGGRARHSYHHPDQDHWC
- Sequence (Q02410 whole entry): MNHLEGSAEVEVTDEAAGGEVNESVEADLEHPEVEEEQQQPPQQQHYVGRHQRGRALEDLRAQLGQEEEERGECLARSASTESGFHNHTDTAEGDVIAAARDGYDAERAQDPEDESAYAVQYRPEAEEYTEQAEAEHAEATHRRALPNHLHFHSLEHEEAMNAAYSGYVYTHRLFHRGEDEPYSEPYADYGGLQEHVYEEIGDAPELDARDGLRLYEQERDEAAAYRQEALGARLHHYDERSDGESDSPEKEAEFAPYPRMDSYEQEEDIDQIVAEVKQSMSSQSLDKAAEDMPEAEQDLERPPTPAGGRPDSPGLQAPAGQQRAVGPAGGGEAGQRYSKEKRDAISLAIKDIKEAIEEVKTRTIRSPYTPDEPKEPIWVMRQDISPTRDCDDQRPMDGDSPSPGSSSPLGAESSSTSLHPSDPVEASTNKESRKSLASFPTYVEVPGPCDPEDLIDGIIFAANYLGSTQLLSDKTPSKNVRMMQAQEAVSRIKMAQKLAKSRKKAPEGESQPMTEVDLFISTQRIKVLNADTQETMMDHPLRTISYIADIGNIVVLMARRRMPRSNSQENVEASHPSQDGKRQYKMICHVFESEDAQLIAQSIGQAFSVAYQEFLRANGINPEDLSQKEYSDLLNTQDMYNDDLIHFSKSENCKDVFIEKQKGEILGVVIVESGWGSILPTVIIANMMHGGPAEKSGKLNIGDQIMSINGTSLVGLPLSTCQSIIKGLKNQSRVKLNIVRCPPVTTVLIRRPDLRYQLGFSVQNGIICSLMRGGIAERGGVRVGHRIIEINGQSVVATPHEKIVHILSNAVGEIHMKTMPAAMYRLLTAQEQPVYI
- Assay type: protein assay
Calls of active or inactive are those of the source.
Collected IC50 values appear next to each entry.

compound.structure | IC50
CC(/C=C/c1ccco1)=N\NC(=O)c1cc(C)[nH]n1 | 4.52 µM (active)
O=C(Nc1cnc(O)nc1O)c1ccc2c(c1)C(=O)N(c1cccc([N+](=O)[O-])c1)C2=O | 9.85 µM (active)
COc1cc(NC(=O)c2ccccc2F)ccc1NC(=O)c1cc2ccccc2o1 | 15.9 µM (active)
O=c1[nH]c(-c2ccc3c(c2)OCO3)nc2c1sc(=S)n2-c1ccccc1 | 5.13 µM (active)

Would you kindly look at the next entry?
Tell us which IC50 value is on record for COc1cccc(/N=c2\oc3ccc(OC)cc3cc2-c2nc3ccccc3[nH]2)c1
41 µM (active)

====

- run.description: inhibitors of firefly luciferase expression or activity, dose response, H4 neuroglioma cells, luminescence (AID 1990)
- Assay type: functional, cell-based
The source made the active and inactive calls.
assay.metric: EC50

Tell us which EC50 value is on record for CCN(CC)C(=O)CSc1nnc2nnc3cc(OC)ccc3n12
14.9 µM (active)

Tell us which EC50 value is on record for NCCCCCc1nnc(SCc2ccccc2Cl)o1
14.7 µM (active)

Tell us which EC50 value is on record for O=C(Nc1ccc2c(c1)OCO2)c1nn(-c2ccccc2)c(=O)c2ccccc12
> 120 µM (not active)

Tell us which EC50 value is on record for CCCc1nc(NCc2ccccc2)c(C#N)c2c1CCCC2
> 120 µM (not active)

====

Read-out record for Cytochrome P450 2C9 (Homo sapiens, UniProt P11712): AC50

The examples below pair each entry with its known result.
compound | experimental.value
O=C(NC(C(=O)c1ccccc1)n1cnccc1=O)c1ccccc1 (centres undefined) | 8.91 µM (inconclusive)
CCOC(=O)C1Cc2c([nH]c3ccccc23)CN1.Cl (centres undefined) | 17.8 µM (inconclusive)
COc1ccc2nc(/N=C\N(C)C)sc2c1 | 0.00562 µM (inconclusive)
NS(=O)(=O)c1ccc(/N=N\c2ccc(O)c(C(=O)O)c2)cc1 | 1 µM (inconclusive)
CCOc1nn(-c2ccc(Cl)cc2)c(O)c1/C=N/c1ccc(Cl)cc1 | 12.6 µM (inconclusive)
Oc1cc(CN2COc3ccccc32)c(O)cc1CNC1CCCCC1 | 6.31 µM (inconclusive)
O=c1c2ccccc2nc2n1C(CSc1ccc(F)cc1)CN2 (centres undefined) | 39.8 µM (inconclusive)
COc1cccc(Cn2c(=O)c(CCc3ccccc3)nc3cncnc32)c1 | 12.6 µM (inconclusive)

Would you kindly look at the next entry?
Name the recorded AC50 of Cc1ccc(CN2C(=O)CCC2C(=O)NCc2cccnc2)cc1 (centres undefined) , assay system Cytochrome P450 2C9 (Homo sapiens, UniProt P11712).
28.2 µM (inconclusive)
